- subject of test: F1t3(h) (Homo sapiens)
- assay summary: Kinase Profiling Assay
- Type: biochemical
- measurement setup: 100 μM peptide
assay metric: F1t3(h) % activity (%)
Use % as the unit, but write only the number.

>>> assay_result("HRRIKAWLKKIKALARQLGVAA (Mammalian) [MMI-0500]")
17
>>> assay_result("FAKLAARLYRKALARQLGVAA [MMI-0300]")
84
>>> assay_result("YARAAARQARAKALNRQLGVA (Mammalian) [MMI-0200]")
99

As a next step, examine the sequence that follows.
Give a short answer stating reported F1t3(h) % activity for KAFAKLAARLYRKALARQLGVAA [MMI-0400] .
18
